Target: Muscarinic acetylcholine receptor M4 (Homo sapiens, UniProt P08173)
Sequence (P08173 whole entry): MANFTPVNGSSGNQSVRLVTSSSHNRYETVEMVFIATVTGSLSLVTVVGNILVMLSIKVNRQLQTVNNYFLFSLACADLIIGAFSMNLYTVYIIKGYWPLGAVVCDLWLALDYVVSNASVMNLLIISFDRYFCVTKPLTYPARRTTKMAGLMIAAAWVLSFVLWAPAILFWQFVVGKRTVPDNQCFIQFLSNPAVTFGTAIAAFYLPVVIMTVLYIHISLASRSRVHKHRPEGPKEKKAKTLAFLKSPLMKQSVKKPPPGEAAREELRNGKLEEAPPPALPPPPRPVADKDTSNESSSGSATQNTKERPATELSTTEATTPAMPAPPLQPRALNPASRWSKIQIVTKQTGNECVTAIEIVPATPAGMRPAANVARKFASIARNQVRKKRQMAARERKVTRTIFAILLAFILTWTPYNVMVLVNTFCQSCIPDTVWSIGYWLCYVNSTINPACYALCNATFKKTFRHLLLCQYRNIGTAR
observed-property: Ki (nM)

[I] C[N+]1(C)CCC[C@@H]1[C@@H]1C[S+]([O-])C(c2ccccc2)(c2ccccc2)O1.[I-] (stereo in doubt; (+)-11)
[II] C[N+](C)(C)C[C@@H]1C[S@](=O)[C@@](c2ccccc2)(C2CCCCC2)O1.[I-]
[III] CN1CCC[C@H]1[C@H]1C[S+]([O-])[C@@](c2ccccc2)(C2CCCCC2)O1 (stereo in doubt; (+)-6)
In this exercise, place the 3 molecules in ascending sequence of their recorded Ki. Hello, could you send the labels back in the order asked? Thank you. II, III, I
